List of log10(IC50) values.
target-or-test-system: MMP-13CD (catalytic domain of collagenase-3) (Homo sapiens, UniProt P45452)
assay-procedure: Thiopeptolide substrate hydrolysis inhibition assay, MMP-13CD
Assay type: biochemical
experimental-conditions: Table I; thiopeptolide substrate, HEPES pH 7.0, 22° C.; read-out: MMP-13CD IC50
outcome-measure: log10(IC50) (log10 of the value in µM)

• COc1cccc(CNC(=O)c2cc3c(=O)n(CCOc4ccc(Cl)cc4)c(=O)n(C)c3s2)c1 = -1.03
• COc1ccc(CNC(=O)c2cc3c(=O)n(CCS(=O)(=O)c4cccc(C(F)(F)F)c4)c(=O)n(C)c3s2)cc1 = 1.48
• Cn1c(=O)n(Cc2ccc(Cl)nc2)c(=O)c2cc(C(=O)OCc3ccccc3)sc21 = -1.29
• Cc1c(C(=O)OCc2ccccc2)sc2[nH]c(=O)n(-c3ccc([N+](=O)[O-])cc3)c(=O)c12 = 1.18
• Cn1c(=O)n(CCCCOc2ccccc2)c(=O)c2cc(C(=O)OCc3ccccc3)sc21 = -0.60
• COc1ccc(CNC(=O)c2cc3c(=O)n(Cc4ccc(C(=O)O)cc4)c(=O)n(C)c3s2)cc1OC = 0.65
